# METHOD NOTES: Measurement of thermal stability (TG/DTA weight reduction temperature)
# Type: physicochemical
# SETUP CONDITIONS: TG/DTA, 30° C. to 600° C., 10° C./min, air 200 mL/min
Form field: Weight reduction temperature 10% (one value per entry).

{"columns": ["COMPOUND", "Weight reduction temperature 10% / °C"],
 "data": [
  ["CCCCCCCCCCCCCCCCCC[n+]1ccn(CCCC)c1.O=S1(=O)[N-]S(=O)(=O)C(F)(F)C(F)(F)C1(F)F [2A, reference compound]", 367.0],
  ["CCCCCCCCCCCCn1ccnc1CCCCCCCCCCC.O=S(=O)(NS(=O)(=O)C(F)(F)C(F)(F)C(F)(F)C(F)(F)F)C(F)(F)C(F)(F)C(F)(F)C(F)(F)F", 361.6],
  ["CCCCCCCCCCCCCCCCCCn1ccnc1CCCCCCCCCCC.O=S(=O)(NS(=O)(=O)C(F)(F)C(F)(F)C(F)(F)C(F)(F)F)C(F)(F)C(F)(F)C(F)(F)C(F)(F)F", 362.4],
  ["CCCCCCCCCCCCCCCCCCn1ccnc1CCCCCCCCCCCCCCCCC.O=S(=O)(O)C(F)(F)C(F)(F)C(F)(F)C(F)(F)F [4A, reference compound]", 365.9]
]}

====

# METHOD NOTES: Measurement of thermal stability (TG/DTA weight reduction temperature)
# Format: physicochemical
# SETUP CONDITIONS: TG/DTA, 30° C. to 600° C., 10° C./min, air 200 mL/min
Recorded Weight reduction temperature 5% values for a group of molecules are listed next.

{"columns": ["MOLECULE", "Weight reduction temperature 5% [°C]"],
 "data": [
  ["CCCCCCCCCCCCCCCCCC[n+]1ccn(CCCC)c1.O=S1(=O)[N-]S(=O)(=O)C(F)(F)C(F)(F)C1(F)F [2A, reference compound]", 347.2],
  ["CCCCCCCCCCCCn1ccnc1CCCCCCCCCCC.O=S(=O)(NS(=O)(=O)C(F)(F)C(F)(F)C(F)(F)C(F)(F)F)C(F)(F)C(F)(F)C(F)(F)C(F)(F)F", 337.7],
  ["CCCCCCCCCCCCCCCCCCn1ccnc1CCCCCCCCCCCCCCCCC.O=S(=O)(O)C(F)(F)C(F)(F)C(F)(F)C(F)(F)F [4A, reference compound]", 338.2],
  ["CCCCCCCCCCCCCCCCCCn1ccnc1CCCCCCCCCCC.O=S(=O)(NS(=O)(=O)C(F)(F)C(F)(F)C(F)(F)C(F)(F)F)C(F)(F)C(F)(F)C(F)(F)C(F)(F)F", 329.1]
]}

====

# METHOD NOTES: Measurement of thermal stability (TG/DTA weight reduction temperature)
# Assay type: physicochemical
# SETUP CONDITIONS: TG/DTA, 30° C. to 600° C., 10° C./min, air 200 mL/min
READOUT NAME: Weight reduction temperature 20% (°C)

{"columns": ["COMPOUND", "READOUT NAME", "OBSERVED MEASUREMENT"],
 "data": [
  ["CCCCCCCCCCCCCCCCCC[n+]1ccn(CCCC)c1.O=S1(=O)[N-]S(=O)(=O)C(F)(F)C(F)(F)C1(F)F [2A, reference compound]", "Weight reduction temperature 20%", 387.8],
  ["CCCCCCCCCCCCCCCCCCn1ccnc1CCCCCCCCCCC.O=S(=O)(NS(=O)(=O)C(F)(F)C(F)(F)C(F)(F)C(F)(F)F)C(F)(F)C(F)(F)C(F)(F)C(F)(F)F [Ex. 4A]", "Weight reduction temperature 20%", 388.4],
  ["CCCCCCCCCCCCCCCCCCn1ccnc1CCCCCCCCCCCCCCCCC.O=S(=O)(O)C(F)(F)C(F)(F)C(F)(F)C(F)(F)F [4A, reference compound]", "Weight reduction temperature 20%", 390.1],
  ["CCCCCCCCCCCCn1ccnc1CCCCCCCCCCC.O=S(=O)(NS(=O)(=O)C(F)(F)C(F)(F)C(F)(F)C(F)(F)F)C(F)(F)C(F)(F)C(F)(F)C(F)(F)F [Ex. 2A]", "Weight reduction temperature 20%", 383.8]
]}
